molecular target: DLG1_3, Q12959; test: holdup assay; set-up: key: below the threshold = too weak to quantify, mostly under pKd 3.1 to 4; conditions: plain residues with an end cap or a label only (N-terminal biotin on a linker: ado-ado)
Sequence (Q12959 457-571): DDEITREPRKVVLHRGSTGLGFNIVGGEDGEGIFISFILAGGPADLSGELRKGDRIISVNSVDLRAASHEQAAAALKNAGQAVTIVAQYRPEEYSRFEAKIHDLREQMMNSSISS
pKd below 4 gives -1; pKd at or above it gives 1.

**Q:** Check this binder for pKd at or above 4: KIEDVEITLV [FCHSD2, O94868]
**A:** -1

**Q:** Check this binder for pKd at or above 4: EPAKETTTNV [SLC2A3, P11169]
**A:** -1

**Q:** Check this binder for pKd at or above 4: IGHEDLETAV [DGKI, O75912]
**A:** -1

**Q:** Check this binder for pKd at or above 4: TKDKVQETQI [LRRC4, Q9HBW1]
**A:** 1

**Q:** Check this binder for pKd at or above 4: HLSTRQGTCV [ATRNL1, Q5VV63]
**A:** -1

**Q:** Check this binder for pKd at or above 4: THREVKFTSL [CD46, P15529]
**A:** -1
